biological target: MAP3K10 (human); experiment: KINOMEscan competition binding; conditions: compound 10.0 µM

- compound: "COc1cc(C)c(Sc2cnc(NC(=O)c3ccc(CNC(C)C(C)C)cc3)s2)cc1C(=O)N1CCN(C(C)=O)CC1 (stereo not drawn)"
  unit.of.measure: "%"
  kinase still bound, per cent of control: 100
- compound: "CCCS(=O)(=O)Nc1ccc(F)c(C(=O)c2c[nH]c3ncc(Cl)cc23)c1F"
  unit.of.measure: "%"
  kinase still bound, per cent of control: 87
- compound: "N#C/C(=C1/Nc2ccccc2S1)c1ccnc(NCCc2cccnc2)n1"
  unit.of.measure: "%"
  kinase still bound, per cent of control: 85
- compound: "CNC(=O)Nc1ccc(-c2nc(N3CC4CCC(C3)O4)c3cnn(C4CCC5(CC4)OCCO5)c3n2)cc1"
  unit.of.measure: "%"
  kinase still bound, per cent of control: 100
- compound: "CCN(CCO)CCCOc1ccc2c(Nc3cc(CC(=O)Nc4cccc(F)c4)[nH]n3)ncnc2c1"
  unit.of.measure: "%"
  kinase still bound, per cent of control: 92
- compound: "CC1=C(C(=O)Nc2cc3cn[nH]c3cc2F)C(c2ccc(C(F)(F)F)cc2)CC(=O)N1 (stereo not drawn)"
  unit.of.measure: "%"
  kinase still bound, per cent of control: 92
- compound: "COc1ccc(N(C(=O)Oc2cc(C(=O)Nc3cccc(C(F)(F)F)c3)ccc2C)c2ccnc(Nc3ccc(N4CCN(C)CC4)cc3)n2)c(OC)c1"
  unit.of.measure: "%"
  kinase still bound, per cent of control: 100
- compound: "N#Cc1cc(-c2ccnc(Nc3ccc(-n4cnc(-c5cccnc5)n4)cc3)n2)cc(N2CCOCC2)c1"
  unit.of.measure: "%"
  kinase still bound, per cent of control: 72

====

biological target: PIK3CB (human) (UniProt P42338); assay: KINOMEscan competition binding; conditions: compound 10.0 µM
Sequence (P42338 whole entry, looked up): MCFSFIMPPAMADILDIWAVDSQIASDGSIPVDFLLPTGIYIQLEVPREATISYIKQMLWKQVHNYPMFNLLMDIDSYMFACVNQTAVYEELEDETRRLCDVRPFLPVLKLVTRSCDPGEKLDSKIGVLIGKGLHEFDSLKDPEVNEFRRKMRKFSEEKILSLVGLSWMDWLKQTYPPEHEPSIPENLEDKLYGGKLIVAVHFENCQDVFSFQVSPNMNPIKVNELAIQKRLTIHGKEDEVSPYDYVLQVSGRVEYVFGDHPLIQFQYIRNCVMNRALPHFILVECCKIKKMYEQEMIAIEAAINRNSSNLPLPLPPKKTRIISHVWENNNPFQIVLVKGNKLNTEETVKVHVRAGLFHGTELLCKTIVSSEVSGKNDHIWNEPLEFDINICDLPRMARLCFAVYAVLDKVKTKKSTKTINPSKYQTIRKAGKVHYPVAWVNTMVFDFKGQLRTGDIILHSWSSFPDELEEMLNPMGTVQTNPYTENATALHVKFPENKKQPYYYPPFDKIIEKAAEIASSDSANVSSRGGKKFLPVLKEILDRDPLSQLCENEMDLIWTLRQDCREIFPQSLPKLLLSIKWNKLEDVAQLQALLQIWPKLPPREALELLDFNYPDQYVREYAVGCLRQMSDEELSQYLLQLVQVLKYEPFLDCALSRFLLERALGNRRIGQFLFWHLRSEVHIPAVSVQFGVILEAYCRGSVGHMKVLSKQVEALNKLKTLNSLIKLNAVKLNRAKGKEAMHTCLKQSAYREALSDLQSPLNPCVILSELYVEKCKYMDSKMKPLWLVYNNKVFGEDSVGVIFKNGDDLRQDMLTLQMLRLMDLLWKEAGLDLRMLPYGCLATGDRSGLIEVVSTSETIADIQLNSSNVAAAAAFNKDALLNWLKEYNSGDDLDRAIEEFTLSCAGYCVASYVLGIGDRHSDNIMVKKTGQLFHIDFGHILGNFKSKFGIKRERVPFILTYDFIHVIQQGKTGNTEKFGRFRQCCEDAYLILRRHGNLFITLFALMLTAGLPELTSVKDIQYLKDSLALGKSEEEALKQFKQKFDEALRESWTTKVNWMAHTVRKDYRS
Entries annotated with measured kinase still bound, per cent of control

- smiles.structure: "COc1cc(N2CCC(C(N)=O)CC2)ccc1Nc1nc(N)c(Cl)c(Nc2ccccc2S(=O)(=O)C(C)C)n1"
  kinase still bound, per cent of control: "100%"
- smiles.structure: "CCCS(=O)(=O)Nc1ccc(F)c(C(=O)c2c[nH]c3ncc(Cl)cc23)c1F"
  kinase still bound, per cent of control: "100%"
- smiles.structure: "N#Cc1cc(-c2ccnc(Nc3ccc(-n4cnc(-c5cccnc5)n4)cc3)n2)cc(N2CCOCC2)c1"
  kinase still bound, per cent of control: "100%"
- smiles.structure: "N#C/C(=C1/Nc2ccccc2S1)c1ccnc(NCCc2cccnc2)n1"
  kinase still bound, per cent of control: "55%"
- smiles.structure: "CCOc1cc(N2CCC(O)CC2)ccc1Nc1ncc2c(n1)N(C)c1ccccc1C(=O)N2C"
  kinase still bound, per cent of control: "100%"
- smiles.structure: "O=c1[nH]c2ccccc2n1C1CCN(Cc2ccc(-c3nc4cc5[nH]cnc5cc4nc3-c3ccccc3)cc2)CC1"
  kinase still bound, per cent of control: "6.7%"
- smiles.structure: "CCN(CCO)CCCOc1ccc2c(Nc3cc(CC(=O)Nc4cccc(F)c4)[nH]n3)ncnc2c1"
  kinase still bound, per cent of control: "81%"
- smiles.structure: "CCN1CCN(Cc2ccc(NC(=O)c3ccc(C)c(/C=C/c4cnc5[nH]ccc5c4OC)c3)cc2C(F)(F)F)CC1"
  kinase still bound, per cent of control: "100%"
- smiles.structure: "CNC(=O)Nc1ccc(-c2nc(N3CC4CCC(C3)O4)c3cnn(C4CCC5(CC4)OCCO5)c3n2)cc1"
  kinase still bound, per cent of control: "46%"
